- System: 857933-349-R-J2-PDC complex spheroid viability
- PROCEDURE SUMMARY: Anticancer human tumor 857933-349-R-J2-PDC patient-derived colon adenocarcinoma cell line growth inhibition [POLQ]
- TEST SETTINGS: second compound 3.16 µM; first compound 0.0316 µM; stronger effect = lower value
- Experimental: Multicellular complex tumor spheroid response to Polymerase (POL) inhibitors (novobiocin, ART-558, RP6685) in combination with a variety of drugs and investigational agents in selected tumor cell lines The POL inhibitors (novobiocin, ART-558, and RP6685) were evaluated both individually and in combination with standard of care and investigational anticancer small molecules within a complex spheroid model of solid tumors. . […]
Entries and their viability, T/C
ASSAY ENDPOINT: viability, T/C (%)

COMPOUND | UNIT TAG | REPORTED RESULT
O=c1[nH]cc(F)c(=O)[nH]1 + Nc1ccc(C#CCN(C(=O)Cc2ncc(C(F)(F)F)cc2C(F)(F)F)c2ccc(F)cc2)nn1 | % | 105
CCc1c2c(nc3ccc(O)cc13)-c1cc3c(c(=O)n1C2)COC(=O)[C@]3(O)CC + Nc1ccc(C#CCN(C(=O)Cc2ncc(C(F)(F)F)cc2C(F)(F)F)c2ccc(F)cc2)nn1 | % | 27.4
COc1cccc(OCCCN)c1-c1cc(Nc2cnc(C#N)cn2)n[nH]1 + COC1C(OC(N)=O)C(O)C(Oc2ccc3c(O)c(NC(=O)c4ccc(O)c(CC=C(C)C)c4)c(=O)oc3c2C)OC1(C)C | % | 79.5

* * *

Entries and their viability, T/C
- Tested on: 857933-349-R-J2-PDC complex spheroid viability
- PROCEDURE SUMMARY: Anticancer human tumor 857933-349-R-J2-PDC cell line growth inhibition [POLQ];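 note: spheroids exposed to compounds for seven days before readout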
- TEST SETTINGS: second compound 0.1 µM; first compound 0.000316 µM; stronger effect = lower value

COMPOUND | viability, T/C (%)
CC[C@@]1(O)C(=O)OCc2c1cc1n(c2=O)Cc2cc3c(CN(C)C)c(O)ccc3nc2-1 + COC1C(OC(N)=O)C(O)C(Oc2ccc3c(O)c(NC(=O)c4ccc(O)c(CC=C(C)C)c4)c(=O)oc3c2C)OC1(C)C | 105
CC[C@@]1(O)C(=O)OCc2c1cc1n(c2=O)Cc2cc3c(CN(C)C)c(O)ccc3nc2-1 + Nc1ccc(C#CCN(C(=O)Cc2ncc(C(F)(F)F)cc2C(F)(F)F)c2ccc(F)cc2)nn1 | 98.9
Cn1ncnc1[C@H]1c2n[nH]c(=O)c3cc(F)cc(c23)N[C@@H]1c1ccc(F)cc1 + COC1C(OC(N)=O)C(O)C(Oc2ccc3c(O)c(NC(=O)c4ccc(O)c(CC=C(C)C)c4)c(=O)oc3c2C)OC1(C)C | 106
Cn1ncnc1[C@H]1c2n[nH]c(=O)c3cc(F)cc(c23)N[C@@H]1c1ccc(F)cc1 + Cc1cccc(N(C)C(=O)C2C(O)CCN2c2nc(C)cc(C(F)(F)F)c2C#N)c1 | 110
CC[C@@]1(O)C(=O)OCc2c1cc1n(c2=O)Cc2cc3c(CN(C)C)c(O)ccc3nc2-1 + Cc1cccc(N(C)C(=O)C2C(O)CCN2c2nc(C)cc(C(F)(F)F)c2C#N)c1 | 106
Cn1ncnc1[C@H]1c2n[nH]c(=O)c3cc(F)cc(c23)N[C@@H]1c1ccc(F)cc1 + Nc1ccc(C#CCN(C(=O)Cc2ncc(C(F)(F)F)cc2C(F)(F)F)c2ccc(F)cc2)nn1 | 92.7

* * *

- Tested on: 857933-349-R-J2-PDC complex spheroid viability
- PROCEDURE SUMMARY: Anticancer human tumor 857933-349-R-J2-PDC cell line growth inhibition [POLQ];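 note: spheroids exposed to compounds for seven days before readout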
- TEST SETTINGS: second compound 3.16 µM; first compound 0.1 µM; stronger effect = lower value
- Method: Multicellular complex tumor spheroid response to Polymerase (POL) inhibitors (novobiocin, ART-558, RP6685) in combination with a variety of drugs and investigational agents in selected tumor cell lines The POL inhibitors (novobiocin, ART-558, and RP6685) were evaluated both individually and in combination with standard of care and investigational anticancer small molecules within a complex spheroid model of solid tumors. . […]
# note: exactly 90% is not below, so it is no (0); use yes (1) for viability, T/C strictly under it

COMPOUND | ASSIGNED CATEGORY
CCCS(=O)(=O)Nc1ccc(F)c(C(=O)c2c[nH]c3ncc(-c4ccc(Cl)cc4)cc23)c1F + Nc1ccc(C#CCN(C(=O)Cc2ncc(C(F)(F)F)cc2C(F)(F)F)c2ccc(F)cc2)nn1 | no (0)
COc1cccc2c1C(=O)c1c(O)c3c(c(O)c1C2=O)CC(O)(C(=O)CO)CC3OC1CC(N)C(O)C(C)O1 (stereo unspecified) + Cc1cccc(N(C)C(=O)C2C(O)CCN2c2nc(C)cc(C(F)(F)F)c2C#N)c1 | yes (1)
COc1cccc2c1C(=O)c1c(O)c3c(c(O)c1C2=O)CC(O)(C(=O)CO)CC3OC1CC(N)C(O)C(C)O1 (stereo unspecified) + COC1C(OC(N)=O)C(O)C(Oc2ccc3c(O)c(NC(=O)c4ccc(O)c(CC=C(C)C)c4)c(=O)oc3c2C)OC1(C)C | yes (1)
O=C(c1cc(Cc2n[nH]c(=O)c3ccccc23)ccc1F)N1CCN(C(=O)C2CC2)CC1 + Cc1cccc(N(C)C(=O)C2C(O)CCN2c2nc(C)cc(C(F)(F)F)c2C#N)c1 | yes (1)
CC(C)n1c(=O)n(C)c2cnc3cc(F)c(-c4ccc(OCCCN5CCCCC5)nc4)cc3c21 + COC1C(OC(N)=O)C(O)C(Oc2ccc3c(O)c(NC(=O)c4ccc(O)c(CC=C(C)C)c4)c(=O)oc3c2C)OC1(C)C | no (0)
Nc1ccn(C2OC(CO)C(O)C2(F)F)c(=O)n1 (stereo unspecified) + COC1C(OC(N)=O)C(O)C(Oc2ccc3c(O)c(NC(=O)c4ccc(O)c(CC=C(C)C)c4)c(=O)oc3c2C)OC1(C)C | yes (1)
O=C(c1cc(Cc2n[nH]c(=O)c3ccccc23)ccc1F)N1CCN(C(=O)C2CC2)CC1 + Nc1ccc(C#CCN(C(=O)Cc2ncc(C(F)(F)F)cc2C(F)(F)F)c2ccc(F)cc2)nn1 | no (0)
CC1COCCN1c1cc(C2(O)CC3CCC(C2)O3)c2cnn(-c3ccn[nH]3)c2n1 (stereo unspecified) + Cc1cccc(N(C)C(=O)C2C(O)CCN2c2nc(C)cc(C(F)(F)F)c2C#N)c1 | yes (1)

* * *

- Tested on: 857933-349-R-J2-PDC complex spheroid viability
- PROCEDURE SUMMARY: Anticancer human tumor 857933-349-R-J2-PDC cell line growth inhibition [POLQ];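 note: spheroids exposed to compounds for seven days before readout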
- TEST SETTINGS: second compound 0.1 µM; first compound 0.1 µM; stronger effect = lower value
Entries and their viability, T/C
ASSAY ENDPOINT: viability, T/C (%)

COMPOUND | REPORTED RESULT
CC(C)n1c(=O)n(C)c2cnc3cc(F)c(-c4ccc(OCCCN5CCCCC5)nc4)cc3c21 + Cc1cccc(N(C)C(=O)C2C(O)CCN2c2nc(C)cc(C(F)(F)F)c2C#N)c1 | 107
CNCc1ccc(-c2[nH]c3cc(F)cc4c3c2CCNC4=O)cc1 + COC1C(OC(N)=O)C(O)C(Oc2ccc3c(O)c(NC(=O)c4ccc(O)c(CC=C(C)C)c4)c(=O)oc3c2C)OC1(C)C | 87.7
CNCc1ccc(-c2[nH]c3cc(F)cc4c3c2CCNC4=O)cc1 + Cc1cccc(N(C)C(=O)C2C(O)CCN2c2nc(C)cc(C(F)(F)F)c2C#N)c1 | 90.7
CC1COCCN1c1cc(C2(S(C)(=N)=O)CC2)nc(-c2ccnc3[nH]ccc23)n1 (stereo not given) + COC1C(OC(N)=O)C(O)C(Oc2ccc3c(O)c(NC(=O)c4ccc(O)c(CC=C(C)C)c4)c(=O)oc3c2C)OC1(C)C | 84.5
C=CCn1c(=O)c2cnc(Nc3ccc(N4CCN(C)CC4)cc3)nc2n1-c1cccc(C(C)(C)O)n1 + Nc1ccc(C#CCN(C(=O)Cc2ncc(C(F)(F)F)cc2C(F)(F)F)c2ccc(F)cc2)nn1 | 91.9
O=C(c1cc(Cc2n[nH]c(=O)c3ccccc23)ccc1F)N1CCN(C(=O)C2CC2)CC1 + Cc1cccc(N(C)C(=O)C2C(O)CCN2c2nc(C)cc(C(F)(F)F)c2C#N)c1 | 101
COc1cc(C2c3cc4c(cc3C(OC3OC5COC(C)OC5C(O)C3O)C3COC(=O)C23)OCO4)cc(OC)c1O (stereo not given) + Nc1ccc(C#CCN(C(=O)Cc2ncc(C(F)(F)F)cc2C(F)(F)F)c2ccc(F)cc2)nn1 | 72.5
Cn1ncnc1[C@H]1c2n[nH]c(=O)c3cc(F)cc(c23)N[C@@H]1c1ccc(F)cc1 + COC1C(OC(N)=O)C(O)C(Oc2ccc3c(O)c(NC(=O)c4ccc(O)c(CC=C(C)C)c4)c(=O)oc3c2C)OC1(C)C | 84.7
COc1ccc([C@@H](O)c2cc(-c3ncnc4cc(N5CCOCC5)ccc34)c(F)cc2Cl)nn1 + Nc1ccc(C#CCN(C(=O)Cc2ncc(C(F)(F)F)cc2C(F)(F)F)c2ccc(F)cc2)nn1 | 100
C#Cc1c(F)ccc2cc(O)cc(-c3ncc4c(N5CC6CCC(C5)N6)nc(OCC56CCCN5CC(F)C6)nc4c3F)c12 (stereo not given) + COC1C(OC(N)=O)C(O)C(Oc2ccc3c(O)c(NC(=O)c4ccc(O)c(CC=C(C)C)c4)c(=O)oc3c2C)OC1(C)C | 102
O=C(c1cc(Cc2n[nH]c(=O)c3ccccc23)ccc1F)N1CCN(C(=O)C2CC2)CC1 + COC1C(OC(N)=O)C(O)C(Oc2ccc3c(O)c(NC(=O)c4ccc(O)c(CC=C(C)C)c4)c(=O)oc3c2C)OC1(C)C | 130
CCc1c2c(nc3ccc(O)cc13)-c1cc3c(c(=O)n1C2)COC(=O)[C@]3(O)CC + Cc1cccc(N(C)C(=O)C2C(O)CCN2c2nc(C)cc(C(F)(F)F)c2C#N)c1 | 17.7
O=c1[nH]cc(F)c(=O)[nH]1 + Nc1ccc(C#CCN(C(=O)Cc2ncc(C(F)(F)F)cc2C(F)(F)F)c2ccc(F)cc2)nn1 | 93.5
C=CC(=O)N1CCN(c2nc(=O)n(-c3c(C)ccnc3C(C)C)c3nc(-c4c(O)cccc4F)c(F)cc23)C(C)C1 (stereo not given) + Nc1ccc(C#CCN(C(=O)Cc2ncc(C(F)(F)F)cc2C(F)(F)F)c2ccc(F)cc2)nn1 | 90.7
C=CC(=O)N1CCN(c2nc(=O)n(-c3c(C)ccnc3C(C)C)c3nc(-c4c(O)cccc4F)c(F)cc23)C(C)C1 (stereo not given) + COC1C(OC(N)=O)C(O)C(Oc2ccc3c(O)c(NC(=O)c4ccc(O)c(CC=C(C)C)c4)c(=O)oc3c2C)OC1(C)C | 88.7
C#Cc1c(F)ccc2cc(O)cc(-c3ncc4c(N5CC6CCC(C5)N6)nc(OCC56CCCN5CC(F)C6)nc4c3F)c12 (stereo not given) + Cc1cccc(N(C)C(=O)C2C(O)CCN2c2nc(C)cc(C(F)(F)F)c2C#N)c1 | 97.8
COc1cccc2c1C(=O)c1c(O)c3c(c(O)c1C2=O)CC(O)(C(=O)CO)CC3OC1CC(N)C(O)C(C)O1 (stereo not given) + COC1C(OC(N)=O)C(O)C(Oc2ccc3c(O)c(NC(=O)c4ccc(O)c(CC=C(C)C)c4)c(=O)oc3c2C)OC1(C)C | 70.5
COc1cccc(OCCCN)c1-c1cc(Nc2cnc(C#N)cn2)n[nH]1 + Nc1ccc(C#CCN(C(=O)Cc2ncc(C(F)(F)F)cc2C(F)(F)F)c2ccc(F)cc2)nn1 | 88.8
COc1cccc(OCCCN)c1-c1cc(Nc2cnc(C#N)cn2)n[nH]1 + Cc1cccc(N(C)C(=O)C2C(O)CCN2c2nc(C)cc(C(F)(F)F)c2C#N)c1 | 73
CCc1c2c(nc3ccc(O)cc13)-c1cc3c(c(=O)n1C2)COC(=O)[C@]3(O)CC + COC1C(OC(N)=O)C(O)C(Oc2ccc3c(O)c(NC(=O)c4ccc(O)c(CC=C(C)C)c4)c(=O)oc3c2C)OC1(C)C | 20.2
